Target: T1, MLL4_(ePHD6)_(1495–1564) (human, UniProt O14686 1495-1564)
T1 construct: MLL4 (KMT2D), human, residues 1495–1564; also called MLL4_ePHD6, residues 1495–1564; source: E. coli BL21 (DE3) Codon plus RIL, purified (Ni-NTA, thrombin, HiTrap Q, Superdex75); not shown: GST, N-terminal, cleaved; His tag, N-terminal, cleaved
T1 sequence (O14686 1495-1564): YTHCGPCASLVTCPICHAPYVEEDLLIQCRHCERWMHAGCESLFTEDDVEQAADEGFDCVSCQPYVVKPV
Test: ITC; peptide (1–2 mM) in the syringe injected into protein (50–100 μM) in the cell; 25 °C; 20 mM Tris pH 7.5, 150 mM NaCl; single-site binding model
Details: both partners purified
REPORTED_METRIC: pKd
Friendly reminder that pKd comes from taking -log10 of the concentration in mol/L.

Query :: Fill blank: measured pKd of the binder GKGGAKRHRKV (peptide, UniProt P62805 12-22, looked up, histone H4, residues 11–21; also called H4H18 peptide; source: synthetic peptide (Peptide 2.0 Inc.)) [histone H4 peptide H4_(11–21)] is ____.
Result :: 4.32
